Cited source for all entries: ChEMBL document CHEMBL4732202

test.summary: Half life in mouse liver microsomes at 0.1 uM in presence or absence of NADPH by LC-MS/MS analysis
Type: ADME, Microsome
measured.endpoint: half-life at 0.1 µM (min)

- molecule: "O=C(Cc1ccc(O)cn1)N1CC(CNc2ccc(F)cc2)C2(C1)CN(c1cc(F)cc(F)c1)C2 (racemic)"
  test.result: 11
- molecule: "O=C(Cc1ccc(O)c(C(F)(F)F)c1)N1CC(CNc2ccc(F)cc2)C2(C1)CN(c1cc(F)cc(F)c1)C2 (racemic)"
  test.result: 24
- molecule: "O=C(Cc1ccc(O)c(Cl)c1)N1CC(CNc2ccc(F)cc2)C2(C1)CN(c1ccc(F)cc1)C2 (racemic)"
  test.result: 16
- molecule: "O=C([C@H](O)c1ccc(O)cc1)N1CC(CNc2ccc(F)cc2)C2(C1)CN(c1cc(F)cc(F)c1)C2 (mixture of isomers)"
  test.result: 4.4

* * *

test.summary: Half life in rat liver microsomes at 0.1 uM in presence or absence of NADPH by LC-MS/MS analysis
Format: ADME, Microsome
measured.endpoint: half-life at 0.1 µM (min)

- compound: "O=C(CN1CCC(O)CC1)N1CC(CNc2ccc(F)cc2)C2(C1)CN(c1ccc(F)cc1)C2 (racemic)"
  measured.endpoint: "half-life at 0.1 µM"
  test.result: 150
- compound: "O=C([C@@H](O)c1ccc(O)cc1)N1CC(CNc2ccc(F)cc2)C2(C1)CN(c1cc(F)cc(F)c1)C2 (mixture of isomers)"
  measured.endpoint: "half-life at 0.1 µM"
  test.result: 6.7
- compound: "O=C(Cc1ccc(O)c(C(F)(F)F)c1)N1CC(CNc2ccc(F)cc2)C2(C1)CN(c1cc(F)cc(F)c1)C2 (racemic)"
  measured.endpoint: "half-life at 0.1 µM"
  test.result: 16
- compound: "O=C(N1CC(CNc2ccc(F)cc2)C2(C1)CN(c1cc(F)cc(F)c1)C2)C(F)(F)c1ccc(O)c(C(F)(F)F)c1 (racemic)"
  measured.endpoint: "half-life at 0.1 µM"
  test.result: 7
- compound: "N#Cc1cc(CC(=O)N2CC(CNc3ccc(F)cc3)C3(C2)CN(c2cc(F)cc(F)c2)C3)ccc1O (racemic)"
  measured.endpoint: "half-life at 0.1 µM"
  test.result: 31
- compound: "O=C(Cc1ccc(O)cn1)N1CC(CNc2ccc(F)cc2)C2(C1)CN(c1cc(F)cc(F)c1)C2 (racemic)"
  measured.endpoint: "half-life at 0.1 µM"
  test.result: 12
- compound: "C[C@H](C(=O)N1CC(CNc2ccc(F)cc2)C2(C1)CN(c1cc(F)cc(F)c1)C2)c1ccc(O)cc1 (mixture of isomers)"
  measured.endpoint: "half-life at 0.1 µM"
  test.result: 4

* * *

test.summary: Half life in rat liver microsomes at 0.1 uM in presence or absence of NADPH by LC-MS/MS analysis
Format: ADME, Microsome
Each entry below lists one item and its recorded half-life at 0.1 µM value.

- compound: "NC(=O)c1cc(CC(=O)N2CC(CNc3ccc(F)cc3)C3(C2)CN(c2cc(F)cc(F)c2)C3)ccc1O (racemic)"
  half-life at 0.1 µM (min): 8
- compound: "N[C@@H](C(=O)N1CC(CNc2ccc(F)cc2)C2(C1)CN(c1cc(F)cc(F)c1)C2)c1ccc(O)cc1 (mixture of isomers)"
  half-life at 0.1 µM (min): 44
- compound: "N[C@H](C(=O)N1CC(CNc2ccc(F)cc2)C2(C1)CN(c1cc(F)cc(F)c1)C2)c1ccc(O)cc1 (mixture of isomers; form 1)"
  half-life at 0.1 µM (min): 150
- compound: "O=C(Cc1ccc(O)c(Cl)c1)N1CC(CNc2ccc(F)cc2)C2(C1)CN(c1ccc(F)cc1)C2 (racemic)"
  half-life at 0.1 µM (min): 25
- compound: "Nc1ccc(C[C@@H](N)C(=O)N2CC(CNc3ccc(F)cc3)C3(C2)CN(c2cc(F)cc(F)c2)C3)cc1 (mixture of isomers)"
  half-life at 0.1 µM (min): 150
- compound: "O=C(Cc1ccc(O)nc1)N1CC(CNc2ccc(F)cc2)C2(C1)CN(c1cc(F)cc(F)c1)C2 (racemic)"
  half-life at 0.1 µM (min): 52
- compound: "O=C(Cc1cc[n+]([O-])cc1)N1CC(CNc2ccc(F)cc2)C2(C1)CN(c1cc(F)cc(F)c1)C2 (racemic)"
  half-life at 0.1 µM (min): 150
- compound: "C[C@@H](C(=O)N1CC(CNc2ccc(F)cc2)C2(C1)CN(c1cc(F)cc(F)c1)C2)c1ccc(O)cc1 (mixture of isomers)"
  half-life at 0.1 µM (min): 6
- compound: "O=C(N1CC(CNc2ccc(F)cc2)C2(C1)CN(c1cc(F)cc(F)c1)C2)C(F)(F)c1ccc(O)cc1 (racemic)"
  half-life at 0.1 µM (min): 11
- compound: "O=C([C@H](O)c1ccc(O)cc1)N1CC(CNc2ccc(F)cc2)C2(C1)CN(c1cc(F)cc(F)c1)C2 (mixture of isomers)"
  half-life at 0.1 µM (min): 7.9
- compound: "O=C(Cc1cc(F)c(O)c(F)c1)N1CC(CNc2ccc(F)cc2)C2(C1)CN(c1ccc(F)cc1)C2 (racemic)"
  half-life at 0.1 µM (min): 40
- compound: "O=C(Cc1ncc(O)cn1)N1CC(CNc2ccc(F)cc2)C2(C1)CN(c1cc(F)cc(F)c1)C2 (racemic)"
  half-life at 0.1 µM (min): 68
